# Tested on: Acidovorax sp. CHX chnB monooxygenase
# Assay Notes: chnB monooxygenase activity assay, NADPH oxidation at 340 nm, purified over-expressed enzyme
# Format: biochemical
# Assay Context: 1.25 mM substrate, pH 7.5; ND = No Activity Detected
Entries annotated with measured Specific Activity of Monooxygenase Enzymes Against Various Ketone Substrates, sp. CHX chnB
# number only, unit µmol/min/mg dropped from output

O=C1CCCCCCCCCCC1 [Cyclododecanone] ... 0.051

stdin: Bench note: what Specific Activity of Monooxygenase Enzymes Against Various Ketone Substrates, sp. CHX chnB did O=C1C=C[C@H]2CO[C@@H]1O2 [Levoglucosenone] show?
stdout: 0.147

stdin: Bench note: what Specific Activity of Monooxygenase Enzymes Against Various Ketone Substrates, sp. CHX chnB did CCCCCCCCCCCC(C)=O [2-tridecanone] show?
stdout: 0.096

stdin: Bench note: what Specific Activity of Monooxygenase Enzymes Against Various Ketone Substrates, sp. CHX chnB did O=C1Cc2ccccc2N1 [Oxindole] show?
stdout: 0.307

stdin: Bench note: what Specific Activity of Monooxygenase Enzymes Against Various Ketone Substrates, sp. CHX chnB did O=C1CCCCCCC1 [Cyclooctanone] show?
stdout: 0.410

stdin: Bench note: what Specific Activity of Monooxygenase Enzymes Against Various Ketone Substrates, sp. CHX chnB did O=C1CCCCC1=O [1,2-cyclohexanedione] show?
stdout: 0.096

stdin: Bench note: what Specific Activity of Monooxygenase Enzymes Against Various Ketone Substrates, sp. CHX chnB did CC(=O)/C=C/C1=C(C)CCCC1(C)C [beta-ionone] show?
stdout: 0.544

stdin: Bench note: what Specific Activity of Monooxygenase Enzymes Against Various Ketone Substrates, sp. CHX chnB did O=C1CCCCC1 [Cyclohexanone] show?
stdout: 0.397

stdin: Bench note: what Specific Activity of Monooxygenase Enzymes Against Various Ketone Substrates, sp. CHX chnB did O=C1CCCC1 [Cyclopentanone] show?
stdout: 0.621

stdin: Bench note: what Specific Activity of Monooxygenase Enzymes Against Various Ketone Substrates, sp. CHX chnB did CC1CCCC1=O (centres unmarked) [2-methyl-cyclopentanone] show?
stdout: 0.627

stdin: Bench note: what Specific Activity of Monooxygenase Enzymes Against Various Ketone Substrates, sp. CHX chnB did O=C1CCCC(=O)C1 [1,3-cyclohexanedione] show?
stdout: 0.032

stdin: Bench note: what Specific Activity of Monooxygenase Enzymes Against Various Ketone Substrates, sp. CHX chnB did O=C1CCC(=O)CC1 [1,4-cyclohexanedione] show?
stdout: 0.794

stdin: Bench note: what Specific Activity of Monooxygenase Enzymes Against Various Ketone Substrates, sp. CHX chnB did O=C1CCCCCCCCC1 [Cyclodecanone] show?
stdout: 0.160

stdin: Bench note: what Specific Activity of Monooxygenase Enzymes Against Various Ketone Substrates, sp. CHX chnB did O=C1CC2CC[C@H]1C2 [Norcamphor] show?
stdout: 0.166
